// values below are reported cell painting activity score
System: U-2 OS
MEASUREMENT_DESCRIPTION: cell painting activity score (Mahalanobis distance from DMSO wells); higher = stronger morphological phenotype
TEST_SETTINGS: 1.25 µM; 24 h
Just the number.

# COMPOUND, cell painting activity score
rows = [
    ("CC1=NN(c2ccc(C(=O)O)cc2)C(=O)/C1=C\\c1ccc(-c2cc(C)c(C)cc2[N+](=O)[O-])o1", 4.06),
    ("O.O=P1(N(CCCl)CCCl)NCCCO1 (centres undefined)", 3.83),
    ("CN1C(=O)[C@@]23C[C@]4([C@]56C[C@@]78SS[C@@](CO)(C(=O)N7[C@H]5Nc5ccccc56)N(C)C8=O)c5ccccc5N[C@@H]4N2C(=O)[C@]1(CO)SS3", 21.7),
    ("CC1OC2=C(C(=O)C(=O)c3ccccc32)C1(C)C (centres undefined)", 17.1),
    ("CCN1C(=O)C=CC1=O", 5.69),
    ("c1ccc(-c2noc(NC3CCCC3)n2)cc1", 2.85),
    ("COc1ccc2cc1Oc1ccc(cc1)C[C@H]1c3cc(c(OC)cc3CCN1C)Oc1c(OC)c(OC)cc3c1[C@H](C2)N(C)CC3", 5.79),
    ("O=C(O)C1=CC(=C(c2ccc(O)c(C(=O)O)c2)c2ccc(O)c(C(=O)O)c2)C=CC1=O", 3.35),
]

Could you now consider this next compound?
(Q) Specify cell painting activity score for O=S1(=O)CC(SCc2ccccc2)c2ccccc21 (centres undefined) and stop.
(A) 4.32
